Target: hDM21-188 (hDM2) (Homo sapiens)
Assay: Competition fluorescence polarization (cFP) assay, inhibition of p53AD^Flu·hDM2 complexation
Format: binding
Conditions: unlabeled ligand
ASSAY_ENDPOINT: pIC50
# reply with the number alone; pIC50 is -log10 of concentration in mol/L

For the compound CC(C)C[C@@H](CC(=O)N[C@@H](CCC(=O)O)CC(=O)N[C@H]1CCCC[C@@H]1C(=O)N[C@H](CC(=O)N[C@@H](CCCN)CC(=O)N[C@H](CC(=O)N[C@H](CC(=O)N[C@@H](CCC(=O)O)CC(=O)O)Cc1ccccc1)C(C)C)Cc1c[nH]c2ccccc12)NC(=O)C[C@@H](NC(=O)C[C@@H](N)CCCN)C(C)C [β53-AC5] , give its reported pIC50. 4.22

* * *

Reported IC50 is given for each of the following compounds.
Biological target: hDM21-188 (hDM2) (Homo sapiens, UniProt Q00987)
Sequence (Q00987 1-188 limits assumed): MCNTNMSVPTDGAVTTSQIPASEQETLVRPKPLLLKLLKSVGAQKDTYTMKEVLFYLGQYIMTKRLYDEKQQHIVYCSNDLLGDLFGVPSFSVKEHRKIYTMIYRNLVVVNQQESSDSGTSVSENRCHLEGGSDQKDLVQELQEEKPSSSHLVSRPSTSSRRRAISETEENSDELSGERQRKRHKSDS
Experiment: Competition fluorescence polarization (cFP) assay, inhibition of p53AD^Flu·hDM2 complexation
Format: binding
Conditions: unlabeled ligand
Numbers only here, please. The scale is µM.

Worked cases, IC50 given:
COMPOUND	EXPERIMENTAL_SYSTEM	IC50 [µM]
CC(C)C[C@@H](CC(=O)N[C@@H](CCC(=O)O)CC(=O)N[C@H]1CCCC[C@@H]1C(=O)N[C@H](CC(=O)N[C@@H](CCCN)CC(=O)N[C@H]1CCCC[C@@H]1C(=O)N[C@H](CC(=O)N[C@@H](CCC(=O)O)CC(=O)O)Cc1ccccc1)Cc1c[nH]c2ccccc12)NC(=O)[C@H]1CCCC[C@@H]1NC(=O)C[C@@H](N)CCCN [β53-ACtrip]	hDM21-188 (hDM2) (Homo sapiens, UniProt Q00987)	17.2
CC(C)C[C@@H](CC(=O)N[C@@H](CCC(=O)O)CC(=O)N[C@H](CC(=O)N[C@H](CC(=O)N[C@@H](CCCN)CC(=O)N[C@H](CC(=O)N[C@H](CC(=O)N[C@@H](CCC(=O)O)CC(=O)O)Cc1ccccc1)C(C)C)Cc1c[nH]c2ccccc12)C(C)C)NC(=O)[C@H]1CCCC[C@@H]1NC(=O)C[C@@H](N)CCCN [β53-AC2]	hDM21-188 (hDM2) (Homo sapiens, UniProt Q00987)	15.5

As a next step, examine the compound that follows.
For the compound CC(C)C[C@@H](CC(=O)N[C@@H](CCC(=O)O)CC(=O)N[C@H](CC(=O)N[C@H](CC(=O)N[C@@H](CCCN)CC(=O)N[C@H]1CCCC[C@@H]1C(=O)N[C@H](CC(=O)N[C@@H](CCC(=O)O)CC(=O)O)Cc1ccccc1)Cc1c[nH]c2ccccc12)C(C)C)NC(=O)C[C@@H](NC(=O)C[C@@H](N)CCCN)C(C)C [β53-AC8] , give its reported IC50. 10.5

* * *

Target: IZN17
Assay: Direct fluorescence polarization binding to gp41 model IZN17
Details: fluorescein-labeled ligand, direct FP; read-out: equilibrium affinity (Kd) for IZN17
Reported pKd is given for each of the following molecules.
# reply with the number alone; pKd is -log10 of concentration in mol/L

Worked cases, pKd given:
CPD_SMILES	EXPERIMENTAL_SYSTEM	REPORTED_RESULT
CC[C@H](C)[C@@H](CC(=O)N[C@H](CC(=O)N[C@@H](CCC(=O)O)CC(=O)O)C(C)C)NC(=O)C[C@H](CCCN)NC(=O)C[C@@H](NC(=O)C[C@H](Cc1c[nH]c2ccccc12)NC(=O)C[C@H](CCC(=O)O)NC(=O)C[C@@H](NC(=O)C[C@H](Cc1c[nH]c2ccccc12)NC(=O)C[C@@H](N)CCCN)C(C)C)C(C)C	IZN17	5.62
CC[C@H](C)[C@@H](CC(=O)N[C@@H](CCC(=O)O)CC(=O)O)NC(=O)C[C@@H](NC(=O)C[C@H](CCCN)NC(=O)C[C@H](Cc1c[nH]c2ccccc12)NC(=O)C[C@@H](NC(=O)C[C@H](CCC(=O)O)NC(=O)C[C@H](Cc1c[nH]c2ccccc12)NC(=O)C[C@@H](NC(=O)C[C@@H](N)CCCN)C(C)C)C(C)C)C(C)C	IZN17	5.82
CC[C@H](C)[C@@H](CC(=O)N[C@H](CC(=O)N[C@@H](CCC(=O)O)CC(=O)N[C@H](CC(=O)N[C@H](CC(=O)N[C@@H](CCCN)CC(=O)N[C@H](CC(=O)N[C@H](CC(=O)N[C@@H](CCC(=O)O)CC(=O)O)C(C)C)Cc1c[nH]c2ccccc12)C(C)C)Cc1c[nH]c2ccccc12)C(C)C)NC(=O)C[C@@H](N)CCCN	IZN17	6.00

As a next step, examine the molecule that follows.
For the molecule `CC[C@H](C)[C@@H](CC(=O)N[C@@H](CCC(=O)O)CC(=O)N[C@H](CC(=O)N[C@H](CC(=O)N[C@@H](CCCN)CC(=O)N[C@H](CC(=O)N[C@H](CC(=O)N[C@@H](CCC(=O)O)CC(=O)O)Cc1c[nH]c2ccccc12)C(C)C)Cc1c[nH]c2ccccc12)C(C)C)NC(=O)C[C@@H](NC(=O)C[C@@H](N)CCCN)C(C)C` , give its reported pKd. 6.12

* * *

System: HeLa-CD4-LTR-β-gal cells and CHO-SEC cells
Assay: Cell-fusion assay (syncitia formation), gp41 mediated fusion
Assay type: cell-based, HIV-1
Details: read-out: EC50, inhibition of cell-cell-fusion
ASSAY_ENDPOINT: pEC50
# reply with the number alone; pEC50 is -log10 of concentration in mol/L

For the compound CC[C@H](C)[C@@H](CC(=O)N[C@@H](CCC(=O)O)CC(=O)O)NC(=O)C[C@@H](NC(=O)C[C@H](CCCN)NC(=O)C[C@H](Cc1c[nH]c2ccccc12)NC(=O)C[C@@H](NC(=O)C[C@H](CCC(=O)O)NC(=O)C[C@H](Cc1c[nH]c2ccccc12)NC(=O)C[C@@H](NC(=O)C[C@@H](N)CCCN)C(C)C)C(C)C)C(C)C [βWWI-4] , give its reported pEC50. 5.28

* * *

Reported pIC50 is given for each of the following compounds.
Target: hDM21-188 (hDM2) (Homo sapiens)
Experiment: Competition fluorescence polarization (cFP) assay, inhibition of p53AD^Flu·hDM2 complexation
Assay type: binding
Conditions: competition FP
pIC50: −log10 of the molar value.

For the compound N[C@H](CC(=O)O)Cc1c[nH]c2ccccc12 [β^3W, β^3-homotyptophan, reference compound] , give its reported pIC50. < 3.00

For the compound CC(C)[C@H](N)CC(=O)N[C@H](CC(=O)N[C@@H](CCC(=O)O)CC(=O)NCCC(=O)O)Cc1c[nH]c2ccccc12 [β53-7, reference compound] , give its reported pIC50. < 3.00

* * *

Target: hDM21-188 (hDM2) (Homo sapiens, UniProt Q00987)
Test: Direct fluorescence polarization binding of fluorescein-labeled ligands to hDM2
Details: fluorescein-labeled ligand; read-out: Kd, apparent equilibrium dissociation constant of complexes between fluorescein-labeled ligands and hDM2
ASSAY_ENDPOINT: Kd (nM)
Numbers only here, please. The scale is nM.

For the molecule CC(C)C[C@@H](CC(=O)N[C@@H](CCC(=O)O)CC(=O)N[C@H]1CCCC[C@@H]1C(=O)N[C@H](CC(=O)N[C@@H](CCCN)CC(=O)N[C@H]1CCCC[C@@H]1C(=O)N[C@H](CC(=O)N[C@@H](CCC(=O)O)CC(=O)O)Cc1ccccc1)Cc1c[nH]c2ccccc12)NC(=O)[C@H]1CCCC[C@@H]1NC(=O)C[C@@H](N)CCCN [β53-ACtrip] , give its reported Kd. 170

For the molecule CC(C)C[C@@H](CC(=O)N[C@@H](CCC(=O)O)CC(=O)N[C@H](CC(=O)N[C@H](CC(=O)N[C@@H](CCCN)CC(=O)N[C@H](CC(=O)N[C@H](CC(=O)N[C@@H](CCC(=O)O)CC(=O)O)Cc1ccccc1)C(C)C)Cc1c[nH]c2ccccc12)C(C)C)NC(=O)[C@H]1CCCC[C@@H]1NC(=O)C[C@@H](N)CCCN [β53-AC2] , give its reported Kd. 210

For the molecule CC(C)C[C@@H](CC(=O)N[C@@H](CCC(=O)O)CC(=O)N[C@H]1CCCC[C@@H]1C(=O)N[C@H](CC(=O)N[C@@H](CCCN)CC(=O)N[C@H](CC(=O)N[C@H](CC(=O)N[C@@H](CCC(=O)O)CC(=O)O)Cc1ccccc1)C(C)C)Cc1c[nH]c2ccccc12)NC(=O)C[C@@H](NC(=O)C[C@@H](N)CCCN)C(C)C [β53-AC5] , give its reported Kd. 210

For the molecule CC(C)C[C@@H](CC(=O)N[C@@H](CCC(=O)O)CC(=O)N[C@H](CC(=O)N[C@H](CC(=O)N[C@@H](CCCN)CC(=O)N[C@H](CC(=O)N[C@H](CC(=O)N[C@@H](CCC(=O)O)CC(=O)O)Cc1ccccc1)C(C)C)Cc1c[nH]c2ccccc12)C(C)C)NC(=O)C[C@@H](NC(=O)C[C@@H](N)CCCN)C(C)C [β53-1] , give its reported Kd. 370

For the molecule CC(C)C[C@@H](CC(=O)N[C@@H](CCC(=O)O)CC(=O)N[C@H](CC(=O)N[C@H](CC(=O)N[C@@H](CCCN)CC(=O)N[C@H]1CCCC[C@@H]1C(=O)N[C@H](CC(=O)N[C@@H](CCC(=O)O)CC(=O)O)Cc1ccccc1)Cc1c[nH]c2ccccc12)C(C)C)NC(=O)C[C@@H](NC(=O)C[C@@H](N)CCCN)C(C)C [β53-AC8] , give its reported Kd. 220
